Reference for the values: PubChem BioAssay (NCI)

test system: UACC-257 melanoma; test: NCI tumour cell line growth inhibition, 48 h
metric.name: TGI

Would you please look over these solved cases?
- molecule: "CC(C)[C@@H]1NC(=O)[C@]2(C)CSC(=N2)c2ccnc(c2)CNC(=O)C[C@@H](/C=C/CCS)OC1=O"
  experimental.value: "0.526 µM"
- molecule: "O=c1c(F)cn(Cc2c(Cl)cccc2Cl)c(=O)n1Cc1c(Cl)cccc1Cl"
  experimental.value: "> 31.6 µM"
- molecule: "COc1ccc(C(C)NNC(=O)c2ccncc2)cc1OC (stereo unspecified)"
  experimental.value: "> 100 µM"
- molecule: "CCOC(=O)c1cc(-c2ccc(OC)cc2)c([N+](=O)[O-])n1C"
  experimental.value: "> 10 µM"
- molecule: "O=C(O)C(Cl)Cl"
  experimental.value: "> 10000 µM"

Hey, can you go through the list below and give me TGI for every item?
1. CCCCCCOc1ccc(/C=N/Nc2cc(C)nc3ccc(Cl)cc23)cc1
2. Cc1ccc(S(=O)(=O)N2C3C=CC(C3)[C@@H]2C(Cl)(Cl)Cl)cc1 (stereo partly specified)

Found:
1. 3.26 µM
2. 60.5 µM

Below is a list of molecules. For each, state its recorded TGI.
1. N#Cc1nc(-c2cnccn2)oc1N
2. Nc1nc2[nH]cc(CCc3ccc(C(=O)N[C@@H](CCC(=O)O)C(=O)O)cc3)c2c(=O)[nH]1
3. CN1C(=O)C(=O)N2c3ccc(Cl)cc3C3(c4ccccc4)N=CC12O3 (stereo unspecified)
4. C#Cc1cccc(Nc2nc3cc([N+](=O)[O-])ccc3nc2Nc2ccc(O)cc2)c1

Found:
["> 100 µM", "> 100 µM", "19 µM", "4.34 µM"]

* * *

tested on: SF-295 CNS; test: NCI tumour cell line growth inhibition, 48 h
metric.name: TGI

Batch request: TGI for each of the following compounds.
1. Cc1ccc(-[n+]2cc([O-])on2)cc1
2. C[C@]12c3c4cc(NC(=O)C(=O)NCc5ccc(-c6ccccn6)nc5)cc3Oc3cc(NC(=O)C(=O)NCc5ccc(-c6ccccn6)nc5)cc(c31)OC1C=C(NC(=O)C(=O)NCc3ccc(-c5ccccn5)nc3)C=C(O4)C12 (some centres undefined)
3. CC[C@@H](c1ccc(O)c(O)c1)[C@@H](CC)c1ccc(O)c(O)c1
4. CCOC(=O)c1cc(-c2ccc(OC)cc2)c([N+](=O)[O-])n1C
5. O=C1C(C(Nc2ccccc2)c2ccccc2)=C([O-])c2ccccc21.O=C1C(C(Nc2ccccc2)c2ccccc2)=C([O-])c2ccccc21.[Cu+2] (centres undefined)
6. CC(=O)N[C@@H](Cc1ccc(OP(=O)(O)O)cc1)C(=O)N[C@H]1CCC(=O)N2CCC[C@@H](C(=O)Nc3cccc4ccccc34)N2C1=O

Found:
["> 100 µM", "> 100 µM", "87 µM", "> 10 µM", "> 100 µM", "> 25 µM"]

* * *

system: K-562 leukemia; assay: NCI tumour cell line growth inhibition, 48 h
metric.name: TGI

Consider the following illustrative entries.
- compound: "COc1cccc(-c2cc(=O)c3cc(N4CCCCC4)ccc3[nH]2)c1"
  system.name: "K-562 leukemia"
  TGI: "> 100 µM"
- compound: "Cc1ccc(Nc2nc(NNC(=O)Cc3ccccc3)nc(NNC(=O)c3ccncc3)n2)cc1"
  system.name: "K-562 leukemia"
  TGI: "> 10 µM"
- compound: "CC(C)C(NC(=O)Oc1ccccc1)C(=O)NC1c2c(Br)sc(Br)c2C(=O)C1O (stereo not given)"
  system.name: "K-562 leukemia"
  TGI: "17.4 µM"
- compound: "O=C1C(Br)=C(Br)C(=O)c2ccc(=O)ccc21"
  system.name: "K-562 leukemia"
  TGI: "> 61.9 µM"
- compound: "COc1cc(S(=O)(=O)Nc2ccc(-c3csc(N4C(=O)CSC4c4cccc(Oc5ccccc5)c4)n3)cc2)ccc1Cl (stereo not given)"
  system.name: "K-562 leukemia"
  TGI: "> 100 µM"

Need TGI for each of these compounds.
1. O=C1NC2(CCN(CCc3ccccc3)CC2)Oc2ccccc21
2. CC(=O)OC1(C)N=NC2(CCCCC2)O1 (stereo not given)
3. COc1cc2c(cc1OC)-c1cc(OC)c(OC)cc1C(CN(C)C)C2 (stereo not given)

Found:
> 100 µM
> 100 µM
> 10 µM

Lab note: each compound below needs its TGI filled in.
1. OC(c1cc(C(F)(F)F)nc2c(C(F)(F)F)cccc12)C1CCCCN1 (stereo not given)
2. CCOC(=O)C(=[N+]=[N-])C(=O)CN1C(=O)c2ccccc2C1=O

Found:
1. 6.47 µM
2. > 100 µM
